tested on: A549; experiment: NCI tumour cell line growth inhibition, 48 h
The source made the active and inactive calls. No stated cut-off is given here; in the data, active = GI50 up to about 1.1 µM and inactive = higher.
Hi there, use one of these labels in your reply, thanks! True for active, False for inactive

For orientation, consider the following solved cases.
CCC(=O)C1(N2CCOCC2)CCN(CCCC(=O)c2ccc(F)cc2)CC1	False
CN(C)C(=S)N=C(Nc1ccccc1)Nc1ccccc1	False
Cc1ccc(NC(=O)c2cc3cc(/N=N/c4ccc(Br)cc4)ccc3oc2=O)cc1	False
O=c1cc(-c2ccccc2)[nH]c2cccc(S)c12	True
CC(C)(Br)C(Br)CCC1(C2CO2)CO1 (centres undefined)	False
O=C(CC(=O)Nc1ccc(C(=O)O)cc1)Nc1ccc(C(=O)O)cc1	False
O=S1(=O)CCN(c2ccccc2CC(c2c[nH]c3ccccc23)c2c[nH]c3ccccc23)CC1	False
O=C(c1cccs1)N(C(=S)N1CCN(c2ccccc2)CC1)c1ccccc1	False

How did this test come out for CCOC(=O)NC(=O)c1cn(CCCOC(=O)CCCCCCCCC(=O)OCCCn2cc(C(=O)NC(=O)OCC)c(=O)[nH]c2=O)c(=O)[nH]c1=O ?
False

How did this test come out for CC(=O)[O-].[Zn+].c1ccc(/C(=N\Nc2ccccn2)c2ccccn2)cc1 ?
True

How did this test come out for O=C(O)CCCc1ccc2ccc3ccccc3c2c1 ?
False

How did this test come out for CCCCCCNC(=O)C1=C(C)NC(C)=C(C(=O)NCCCCCC)C1 ?
False

How did this test come out for CCCSc1nc(COC(=O)NC)c(COC(=O)NC)n1C ?
False

How did this test come out for COc1cc([C@@H]2c3cc4c(cc3[C@@H](NCc3ccccc3)C3COC(=O)[C@@H]32)OCO4)cc(OC)c1O (some centres undefined) ?
False

###

Below, each entry is listed with its recorded GI50.
tested on: U-251; assay: NCI tumour cell line growth inhibition, 48 h
Activity calls are given as the source filed them. Cut-off read from the data, not from the text of the source: active = GI50 up to about 1.1 µM and inactive = higher.

State its GI50 for this compound: O=C(O)c1ccccc1-c1ccccc1C(=O)Nc1ccc2c(c1)Cc1cc(F)ccc1-2
21.3 µM (inactive)

###

Below, each entry is listed with its recorded GI50.
system: NCI-H226; test: NCI tumour cell line growth inhibition, 48 h
Activity calls are given as the source filed them. No stated cut-off is given here; in the data, active = GI50 up to about 1.1 µM and inactive = higher.

Illustrative cases are given below, each with its answer.
N#Cc1c(Nc2ccc(F)cc2)[n+]([O-])c2ccc(Cl)cc2[n+]1[O-]	4.51 µM (inactive)
O=C1CSC(c2ccc(Cl)cc2Cl)N1c1ccc(Oc2ccc(Cl)cc2)c(Cl)c1 (stereo not given)	22.1 µM (inactive)
CCOC(=O)/C=C(\C(=O)OCC)n1cc(C)c(=O)n(Cc2cnnn2CCCCOC(C)=O)c1=O	7.43 µM (inactive)
CCOC(=O)c1nc2ccc(C(F)(F)F)cc2nc1NCc1ccc(Cl)c(Cl)c1	30.8 µM (inactive)

State its GI50 for this molecule: S=C1/C(=N/c2ccccc2)N(c2ccccc2)/C(=N\c2ccccn2)N1c1ccccc1
18.2 µM (inactive)

State its GI50 for this molecule: C[C@@H]1O[C@]2(O)[C@@H]3CCCN3S(=O)(=O)CCN2C1=O
> 100 µM (inactive)

State its GI50 for this molecule: CCOc1ccccc1NC(=O)C(=O)CC(=O)C1=C(C)Nc2ccccc2S1
> 100 µM (inactive)

State its GI50 for this molecule: O=C1CCCc2ccc3c(c21)CC1(Cc2ccccc2C1)C3
13.3 µM (inactive)

State its GI50 for this molecule: CN(CCCNC(=O)c1n[nH]c2c1ccc1ccccc12)CCCNC(=O)c1n[nH]c2c1ccc1ccccc12
13.4 µM (inactive)

State its GI50 for this molecule: CN(C)C(=S)SCC(N)=O
45.3 µM (inactive)

###

system: LXFL 529; experiment: NCI tumour cell line growth inhibition, 48 h
Calls of active or inactive are those of the source. Rule as the data show it: active = GI50 up to about 1.1 µM and inactive = higher.
Hi there, use one of these labels in your reply, thanks! active, inactive

For orientation, consider the following solved cases.
CC(C)(Oc1ccc2c(=O)cc(-c3ccc(Cl)cc3)oc2c1)C(=O)Nc1c(Cl)cccc1Cl	inactive
N#CCC(=O)N/N=C1\C(=O)N(c2ccc(Cl)cc2)C(=O)C(=O)C1c1nc2ccccc2o1 (stereo not given)	inactive
O=c1c([Se]c2coc3ccccc3c2=O)coc2ccccc12	inactive

How did this test come out for CC(=O)Oc1c2c(c(OC(C)=O)c3c1n(C(C)=O)c1ccccc1n3C(C)=O)n(C(C)=O)c1ccccc1n2C(C)=O ?
inactive

How did this test come out for CN=S(=O)(C[C@]1(O)CC2OC1C1OC(C)(C)OC21)c1ccccc1 (stereo not given in full) ?
inactive

How did this test come out for C/C(CC(=O)Nc1ccccc1[N+](=O)[O-])=N\NC(N)=O ?
inactive

How did this test come out for COC(=O)C(=O)C(C(=O)OC)C(=O)C(=O)Nc1cc(Cl)c(Cl)cc1Cl (stereo not given) ?
inactive

How did this test come out for N#Cc1nn(-c2ccc(Cl)cc2)c(=N)c2c(N)n3nc(-c4ccccc4)cc3nc12 ?
active

How did this test come out for COc1ccc(C(=O)O)c(Cc2cccc3ccccc23)c1 ?
inactive

How did this test come out for Cc1ccc(-c2nnc3s/c(=C\c4ccc(N(C)C)cc4)c(=O)n23)cc1 ?
inactive

###

system: K562; experiment: NCI tumour cell line growth inhibition, 48 h
Calls of active or inactive are those of the source. Cut-off read from the data, not from the text of the source: active = GI50 up to about 1.1 µM and inactive = higher.
Hi there, use one of these labels in your reply, thanks! Yes = active, No = inactive

For orientation, consider the following solved cases.
COc1ccc2[nH]c3c(C)c4ccnc(NCCCN(C)CCCNc5ccc6ncn7c8ccccc8c(=O)c5c67)c4c(C)c3c2c1	Yes
COc1c(C(=O)CC2c3c(cc4oc(C)cc(=O)c4c3OC)OC(=N)C2c2nc3ccccc3[nH]2)c(O)c(OC)c2occc12 (configuration not stated)	No
O=c1oc2ccccc2cc1-c1cn2cc(Cl)ccc2n1	Yes
CC(=O)c1cccc(NC(=O)C(=O)C(C(=O)c2ccccc2F)C2OC(=O)c3ccccc32)c1 (configuration not stated)	No

How did this test come out for CC(=O)N1C/C(=C\c2ccccc2)C(=O)/C(=C/c2ccccc2)C1 ?
No

###

tested on: TK-10; experiment: NCI tumour cell line growth inhibition, 48 h
The source made the active and inactive calls. Rule as the data show it: active = GI50 up to about 1.1 µM and inactive = higher.
experimental readout: GI50

Provide the reported GI50 (system: TK-10) for COc1ccc(CCC2NCCc3cc(OC)c(OC)cc32)cc1 (stereo not given)
> 100 µM (inactive)

Provide the reported GI50 (system: TK-10) for Cc1c(C)c2ccc3oc4ccccc4c3c2oc1=O
> 100 µM (inactive)

###

tested on: SF-539; test: NCI tumour cell line growth inhibition, 48 h
Active and inactive are the calls of the source. No stated cut-off is given here; in the data, active = GI50 up to about 1.1 µM and inactive = higher.
Below, each entry is listed with its recorded GI50.

CNC(=S)N/N=C1\C(=O)N(CN2CCOCC2)c2ccc([N+](=O)[O-])cc21	17.7 µM (inactive)
Cc1c2c(n(CCN(C)C)c1C)NN=C(C#N)S2(=O)=O	> 100 µM (inactive)
C/N=C(\Nc1cccc(C(F)(F)F)c1)SCc1ccc(N=C=S)cc1	17.5 µM (inactive)

State its GI50 for this compound: CC(C)N1CCN(c2ccncc2S(=O)(=O)N2CCCCC2)CC1
> 100 µM (inactive)

State its GI50 for this compound: COC1CC(=O)C2C(=O)N(c3ccccc3)C(=O)C23C(C(=O)c2ccccc2)=C(C)NC13O (stereo not given)
5.32 µM (inactive)

###

tested on: SF-268; assay: NCI tumour cell line growth inhibition, 48 h
Calls of active or inactive are those of the source. Cut-off read from the data, not from the text of the source: active = GI50 up to about 1.1 µM and inactive = higher.
Hi there, use one of these labels in your reply, thanks! active, inactive

For orientation, consider the following solved cases.
O=C(NCCOC(=O)CCCCCCCCC(=O)OCCNC(=O)NC(=O)c1cn(Cc2ccccc2)c(=O)[nH]c1=O)NC(=O)c1cn(Cc2ccccc2)c(=O)[nH]c1=O	inactive
CC1=CC(=O)NCCN1C	inactive
COc1c2nc(CCl)n(C)c(=O)c2c(OC)c2c(=O)n(C)c(CCl)nc12	inactive
O=C(O)CCCc1ccc2ccc3ccccc3c2c1	inactive
Cc1ccc(Nc2nnc(-c3ccc4c(c3)OCO4)o2)c(C)c1	inactive
COc1cc([C@@H]2c3cc4c(cc3[C@@H](NCc3ccccc3)C3COC(=O)[C@@H]32)OCO4)cc(OC)c1O (some centres not stated)	inactive
O=C(O)C1CC2C3CCC2C1C3=O (configuration not stated)	inactive
COc1ccc2[nH]c3c(C)c4ccnc(NCCCN(C)CCCNc5ccc6ncn7c8ccccc8c(=O)c5c67)c4c(C)c3c2c1	active

How did this test come out for COc1cc(N(CCC#N)CCC#N)ccc1C(/N=N/c1ccccc1C)=N\NC(=O)c1ccc(C)cc1 ?
inactive

How did this test come out for COc1ccc(CCC2NCCc3cc(OC)c(OC)cc32)cc1 (configuration not stated) ?
inactive

How did this test come out for Cc1ccc(-c2nnc3s/c(=C\c4ccc(N(C)C)cc4)c(=O)n23)cc1 ?
inactive

How did this test come out for C=C(Nc1ccc(OC)cc1OC)C(=O)Cc1cccc[n+]1[O-] ?
inactive

###

Below, each entry is listed with its recorded GI50.
system: IGROV-1; assay: NCI tumour cell line growth inhibition, 48 h
The source made the active and inactive calls. Cut-off read from the data, not from the text of the source: active = GI50 up to about 1.1 µM and inactive = higher.

Illustrative cases are given below, each with its answer.
O=c1oc2ccccc2cc1-c1cn2cc(Cl)ccc2n1	0.685 µM (active)
CCCC(=O)O[C@H]1C=C2C[C@@]34SS[C@]5(CC6=C[C@H](OC(C)=O)[C@@H]7O[C@@H]7[C@H]6N5C3=O)C(=O)N4[C@@H]2[C@H]2O[C@H]21	0.0168 µM (active)
O=C1c2sc(-c3ccc(F)cc3)cc2-n2cccc21	8.39 µM (inactive)
O=C(O)C(Br)C(Br)C(=O)O (stereo unspecified)	> 100 µM (inactive)
CC12CCC(O)CC1CCC1C2CCC2(C)C(C(=O)CC(O)C(F)(F)F)CCC12 (stereo unspecified)	> 67.8 µM (inactive)
COC(=O)c1ncc2c(=O)[nH]c3ccccc3c2c1C(=O)OC	> 100 µM (inactive)

State its GI50 for this compound: Cc1cccc(/C=N/NC(=S)N(C)CCc2ccccn2)n1
0.366 µM (active)

State its GI50 for this compound: N#CC(O)CCOCc1ccccc1 (stereo unspecified)
> 100 µM (inactive)
